- testTarget: T. gondii CDPK1 (tgCDPK1) (Toxoplasma gondii)
- Sequence (Q9BJF5 1-507): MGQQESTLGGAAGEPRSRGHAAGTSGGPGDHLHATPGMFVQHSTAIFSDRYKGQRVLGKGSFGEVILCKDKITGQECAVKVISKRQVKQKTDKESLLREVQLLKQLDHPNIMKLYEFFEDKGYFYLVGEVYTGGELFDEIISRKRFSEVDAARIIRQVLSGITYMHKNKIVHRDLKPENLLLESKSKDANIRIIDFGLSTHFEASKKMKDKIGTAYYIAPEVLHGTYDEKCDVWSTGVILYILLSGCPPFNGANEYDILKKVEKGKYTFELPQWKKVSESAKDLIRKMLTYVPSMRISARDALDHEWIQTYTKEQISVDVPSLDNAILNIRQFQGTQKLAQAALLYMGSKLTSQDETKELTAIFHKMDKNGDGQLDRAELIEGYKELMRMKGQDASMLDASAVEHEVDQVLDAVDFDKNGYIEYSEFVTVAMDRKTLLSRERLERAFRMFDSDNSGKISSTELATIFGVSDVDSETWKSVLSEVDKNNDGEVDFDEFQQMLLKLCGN
- assayDetails: biochemical
- conditionSummary: inhibition of T. gondii CDPK1; at least three independent replicates; read-out: tgCDPK1 IC50
Provide the recorded IC50 for the entries that follow.
Answers are plain numbers, in nM.

INSERT INTO measurements (compound, assayresult) VALUES
  ('CC(C)(C)OC(=O)N1CCCC(n2nc(Oc3cc(Cl)ccn3)c3c(N)ncnc32)C1 (stereo not drawn) [Compound 224]', 43.7),
  ('Nc1ncnc2c1c(Oc1cc(O)ccn1)nn2[C@H]1CCCC[C@@H]1O [Compound 278]', 18.9);

For each of the compounds below, state IC50.
1. Nc1ncnc2c1c(Cc1cccc(F)c1)cn2[C@H]1C[C@H](O)C1 [Compound 164]
2. Nc1ncnc2c1c(Oc1cc(O)ccn1)nn2C1CC(F)C1 (stereo not drawn) [Compound 290]
3. Nc1ncnc2c1c(Cc1cccc(Cl)c1)nn2[C@H]1C[C@H](O)C1 [Compound 124]

1. 28.3
2. 8.7
3. 8.87

Hi team, please reply with IC50 for each item in this list.
1. Nc1ncnc2c1c(Oc1cc(C(F)(F)F)ccn1)nn2CC(F)(F)F [Compound 280]
2. NC(=O)c1ccnc(Oc2nn(C3CCCC3)c3ncnc(N)c23)c1 [Compound 204]
3. CC(C)(C)n1nc(Oc2cc(C#N)ccn2)c2c(N)ncnc21 [Compound 259]
4. COc1ccnc(Oc2nn([C@H]3CCCC[C@H]3O)c3ncnc(N)c23)c1 [Compound 282]

38.6
67
18.1
41.3

* * *

Provide the recorded pIC50 for the entries that follow.
- testTarget: T. gondii CDPK1 (tgCDPK1) (Toxoplasma gondii, UniProt Q9BJF5)
- assayDetails: biochemical
- conditionSummary: inhibition of T. gondii CDPK1; at least three independent replicates; read-out: tgCDPK1 IC50
Answers are plain numbers, as −log10 of the molar value.

Study these solved cases before continuing.
INSERT INTO measurements (compound, testtarget, assayresult) VALUES
  ('Nc1ncnc2c1c(Oc1cc(C(F)(F)F)ccn1)nn2C1CCOC1 (stereo not drawn)', 'T. gondii CDPK1 (tgCDPK1) (Toxoplasma gondii, UniProt Q9BJF5)', 7.32),
  ('Nc1ncnc2c1c(Oc1cc(C(F)(F)F)ccn1)nn2C1CCCCC1(F)F (stereo not drawn)', 'T. gondii CDPK1 (tgCDPK1) (Toxoplasma gondii, UniProt Q9BJF5)', 7.45),
  ('Nc1ncnc2c1c(Oc1cc(C(F)(F)F)ccn1)nn2C1CCC(F)(F)CC1', 'T. gondii CDPK1 (tgCDPK1) (Toxoplasma gondii, UniProt Q9BJF5)', 7.42),
  ('N#Cc1ccnc(Oc2nn(CC3CCNCC3(F)F)c3ncnc(N)c23)c1 (stereo not drawn)', 'T. gondii CDPK1 (tgCDPK1) (Toxoplasma gondii, UniProt Q9BJF5)', 7.41),
  ('Nc1ncnc2c1c(Oc1cc(Cl)ccn1)nn2CC1CCNCC1(F)F (stereo not drawn)', 'T. gondii CDPK1 (tgCDPK1) (Toxoplasma gondii, UniProt Q9BJF5)', 8.01),
  ('Nc1ncnc2c1c(Oc1cccc(Cl)c1)nn2C1CCC1', 'T. gondii CDPK1 (tgCDPK1) (Toxoplasma gondii, UniProt Q9BJF5)', 8.13),
  ('COc1ccnc(Oc2nn([C@@H]3CCCC[C@H]3O)c3ncnc(N)c23)c1 [Compound 281]', 'T. gondii CDPK1 (tgCDPK1) (Toxoplasma gondii, UniProt Q9BJF5)', 7.58),
  ('Nc1ncnc2c1c(Oc1cc(C(F)(F)F)ccn1)nn2C1CCCC1 [Compound 257]', 'T. gondii CDPK1 (tgCDPK1) (Toxoplasma gondii, UniProt Q9BJF5)', 7.63);

For record Nc1ncnc2c1c(Oc1cccc(Cl)c1)nn2[C@H]1C[C@H](F)C1 the listed pIC50 is 8.00

* * *

- testTarget: T. gondii CDPK1 (tgCDPK1) (Toxoplasma gondii, UniProt Q9BJF5)
- Sequence (Q9BJF5 1-507): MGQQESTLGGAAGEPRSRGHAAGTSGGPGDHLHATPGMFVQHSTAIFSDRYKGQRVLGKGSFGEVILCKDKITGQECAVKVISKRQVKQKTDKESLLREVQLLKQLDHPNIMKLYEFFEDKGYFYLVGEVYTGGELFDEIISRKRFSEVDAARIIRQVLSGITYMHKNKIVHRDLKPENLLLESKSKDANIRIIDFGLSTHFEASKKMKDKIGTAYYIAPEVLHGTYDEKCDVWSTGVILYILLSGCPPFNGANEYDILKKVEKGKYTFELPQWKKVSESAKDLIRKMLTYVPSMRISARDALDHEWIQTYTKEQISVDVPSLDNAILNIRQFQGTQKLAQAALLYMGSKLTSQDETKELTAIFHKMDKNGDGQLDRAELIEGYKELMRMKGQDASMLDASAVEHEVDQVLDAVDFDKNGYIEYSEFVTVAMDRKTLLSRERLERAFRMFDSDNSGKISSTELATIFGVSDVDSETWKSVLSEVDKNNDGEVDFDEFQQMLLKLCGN
- assayDetails: biochemical
- conditionSummary: inhibition of T. gondii CDPK1; at least three independent replicates; read-out: tgCDPK1 IC50
Values of IC50 strictly less than 30 nM map to yes (1), and values of at least 30 nM map to no (0).

Reference set (10 entries):
INSERT INTO measurements (compound, discretelabel) VALUES
  ('Nc1ncnc2c1c(Oc1cc(C(F)(F)F)ccn1)nn2C1(C(F)(F)F)CCC1', 'yes (1)'),
  ('Nc1ncnc2c1c(Oc1cccc(Cl)c1)nn2CC1(CO)CC1', 'no (0)'),
  ('CC(C)(CO)Cn1nc(Oc2cccc(Cl)c2)c2c(N)ncnc21', 'no (0)'),
  ('CC(=O)Oc1ccnc(Oc2nn(C3CCC(F)(F)CC3)c3ncnc(N)c23)c1', 'yes (1)'),
  ('Nc1ncnc2c1c(Oc1cc(C(F)(F)F)ccn1)nn2[C@H]1CC[C@@H](N)CC1', 'yes (1)'),
  ('Nc1ncnc2c1c(Oc1cccc(C(F)(F)F)c1)nn2[C@H]1C[C@@H](O)C1', 'no (0)'),
  ('N#Cc1ccnc(Oc2nn([C@H]3CC[C@H](C(F)(F)F)CC3)c3ncnc(N)c23)c1', 'yes (1)'),
  ('Nc1ncnc2c1c(Oc1cccc(Cl)c1)nn2Cc1cc[nH]c1', 'yes (1)'),
  ('Nc1ncnc2c1c(Oc1cc(O)ccn1)nn2C1CCC(F)(F)CC1', 'yes (1)'),
  ('CC(C)(C)OC(=O)N1CCC(Cn2nc(Oc3cc(C(F)(F)F)ccn3)c3c(N)ncnc32)C(F)(F)C1 (stereo not drawn)', 'no (0)');

Please determine if CN(C)C1CCC(n2nc(Oc3cc(C(F)(F)F)ccn3)c3c(N)ncnc32)CC1 (stereo not drawn) is below 30 nM in terms of IC50. yes (1)

I'd appreciate it if you could check whether N#Cc1cccc(Oc2nn([C@H]3C[C@H](O)C3)c3ncnc(N)c23)c1 has IC50 smaller than 30 nM. no (0)

Record Nc1ncnc2c1c(Oc1cc(Cl)ccn1)nn2CC1CC1 : is its IC50 strictly below 30 nM? yes (1)

State whether 30 nM exceeds IC50 recorded for Nc1ncnc2c1c(Oc1cccc(Cl)c1)nn2[C@H]1C[C@@H](O)C1 . yes (1)

Answer whether the compound N#Cc1ccnc(Oc2nn(C3CCC(F)(F)CC3)c3ncnc(N)c23)c1 has IC50 strictly less than 30 nM no (0)

Does Nc1ncnc2c1c(Oc1cccc(C(F)(F)F)c1)nn2[C@H]1C[C@H](O)C1 have IC50 strictly under 30 nM? no (0)

* * *

- testTarget: T. gondii CDPK1 (tgCDPK1) (Toxoplasma gondii, UniProt Q9BJF5)
- assayDetails: biochemical
- conditionSummary: tgCDPK1 IC50, inhibition of T. gondii CDPK1; at least three independent replicates
- Description: Certain of the compounds prepared as described above were assayed to determine their IC50 for inhibition of T. gondii CDPK1 (tgCDPK1). At least three independent replicates of the assay were conducted for each compound tested.
measuredMetric: IC50 (µM)
Answers are plain numbers, in µM.

Form: molecule = Nc1ncnc2c1c(Oc1cccc(Cl)c1)nn2[C@H]1C[C@H](F)C1 ; IC50 = 0.0411
